test system: UACC-257 melanoma; assay: NCI tumour cell line growth inhibition, 48 h
ATTRIBUTE MEASURED: TGI (µM)

INSERT INTO assay_data (compound, tgt, value_qualifier, numeric_result) VALUES
  ('NS(=O)(=O)OCCCCCCCOS(N)(=O)=O', 'UACC-257 melanoma', '=', 1310),
  ('CN(C)/N=C1\CC(c2ccccc2)C(C#N)(C#N)C1(C#N)C#N (stereo unspecified)', 'UACC-257 melanoma', '=', 34.3),
  ('COc1cc2nc(-c3cccs3)[nH]c(=O)c2cc1OC', 'UACC-257 melanoma', '>', 100),
  ('O=c1[nH]cnc2c1nnn2CCCCCCCCCCCCn1nnc2c(=O)[nH]cnc21', 'UACC-257 melanoma', '>', 100),
  ('CC(=O)N(O)c1ccc(-c2nc3ccccc3s2)cc1', 'UACC-257 melanoma', '>', 100),
  ('O=C(Nc1nc2ccccc2s1)Nc1ccc([N+](=O)[O-])cc1Cl', 'UACC-257 melanoma', '=', 14.2);

====

Below is a list of entries, each paired with its recorded TGI value.
tested on: SF-268 CNS; test: NCI tumour cell line growth inhibition, 48 h
ATTRIBUTE MEASURED: TGI (µM)

INSERT INTO results (compound, tgt, attribute_measured, value_qualifier, numeric_result) VALUES
  ('COc1cccc(/C=N/[N-]C(N)=O)c1[O-].[Cu+2].[OH3+].c1ccc(-c2ccccn2)nc1', 'SF-268 CNS', 'TGI', '>', 100),
  ('O=C(Nc1nc2ccccc2s1)Nc1ccc([N+](=O)[O-])cc1Cl', 'SF-268 CNS', 'TGI', '=', 18.6),
  ('Fc1cccc(F)c1C1SCc2nc3ccc(Cl)cc3n21 (stereo not given)', 'SF-268 CNS', 'TGI', '>', 100),
  ('CCOC(=O)C1=C(C)N(c2ccc(OC)cc2)C2(O)C=CC(=O)C3=C(O)c4ccccc4C(=O)C312 (stereo not given)', 'SF-268 CNS', 'TGI', '=', 9.82),
  ('O=C1C(CN2CCOCC2)CCCC1CN1CCOCC1 (stereo not given)', 'SF-268 CNS', 'TGI', '=', 43.3),
  ('CCN(CC)c1ccc(/C=C/C=C2C(=O)NC(=S)NC2=O)cc1', 'SF-268 CNS', 'TGI', '>', 100),
  ('CCOc1ccc(NC(=O)CC2C(=O)Nc3ccccc3S2(=O)=O)cc1 (stereo not given)', 'SF-268 CNS', 'TGI', '>', 100),
  ('CC(=O)C1=C(O)C2C3c4c[nH]c5cccc(c45)CC3C(C)(C)N2C1=O (stereo not given)', 'SF-268 CNS', 'TGI', '>', 100),
  ('C(=C\N1CCCCC1)/c1nnnn1-c1ccccc1', 'SF-268 CNS', 'TGI', '=', 84),
  ('O=C(Nc1ccccc1)c1cc(S(=O)(=O)N2CCNNC2=O)c(S)cc1Cl', 'SF-268 CNS', 'TGI', '>', 100);

====

tested on: HOP-62 NSCLC; experiment: NCI tumour cell line growth inhibition, 48 h
Below is a list of entries, each paired with its recorded GI50 value.
ATTRIBUTE MEASURED: GI50

INSERT INTO measurements (molecule, tgt, result) VALUES
  ('O=C1NC(=NCCCc2ccccc2)S/C1=C\c1ccc2ncccc2c1', 'HOP-62 NSCLC', '5.79 µM'),
  ('COC(=O)[C@H]1CCCN1C(=O)[C@H]1CCCN1C(=O)[C@H](Cc1c[nH]c2ccccc12)NC(=S)Nc1cc(C(F)(F)F)cc(C(F)(F)F)c1', 'HOP-62 NSCLC', '8.28 µM'),
  ('CC[n+]1c(/C=C/C=C2\N(C)c3ccccc3C2(C)C)sc2ccccc21', 'HOP-62 NSCLC', '4.47 µM'),
  ('Cc1cc(Cl)nc(N(CCCNc2ccnc3cc(Cl)ccc23)Cc2ccco2)n1', 'HOP-62 NSCLC', '1.59 µM'),
  ('CCn1c(-c2nonc2N)nc2cncc(C(=O)N3CC[C@H](N)C3)c21', 'HOP-62 NSCLC', '7.38 µM'),
  ('CCOC(=O)c1cnc2c(C)cccc2c1Nc1ccc(C(C)=O)cc1', 'HOP-62 NSCLC', '39.7 µM'),
  ('c1ccc2c3c([nH]c2c1)C(c1ccc(C2NCCc4c2[nH]c2ccccc42)cc1)NCC3 (stereo not given)', 'HOP-62 NSCLC', '1.31 µM'),
  ('N#CC1c2ccccc2C=CN1C(=O)N(c1ccccc1)c1ccccc1 (stereo not given)', 'HOP-62 NSCLC', '13.6 µM'),
  ('COc1ccc(N=N/C(C(=O)C(F)(F)F)=C(\O)c2ccc(Cl)cc2)cc1', 'HOP-62 NSCLC', '15.5 µM'),
  ('CN1CSC(=S)N(Cc2ccccc2)C1', 'HOP-62 NSCLC', '18.6 µM');

====

test system: EKVX NSCLC; experiment: NCI tumour cell line growth inhibition, 48 h
ATTRIBUTE MEASURED: TGI (µM)

INSERT INTO results (compound, attribute_measured, value_qualifier, numeric_result) VALUES
  ('O=C(CCc1ccccc1)On1c(-c2ccccc2)nc2ccccc2c1=S', 'TGI', '=', 52.1),
  ('O=c1[nH]cnc2c1nnn2CCCCCCCCCCCCn1nnc2c(=O)[nH]cnc21', 'TGI', '>', 82.5),
  ('O=C(CN1C(=O)S/C(=C\C(Cl)=C\c2ccccc2)C1=O)NC1C=CS(=O)(=O)C1 (centres undefined)', 'TGI', '=', 6.06),
  ('O=S(=O)(c1cnccc1N1CCN(CCO)CC1)N1CCCC1', 'TGI', '>', 100),
  ('Oc1[nH]c2ccccc2c1/C=c1/cc2c(c(-c3ccc(F)cc3)n1)=Nc1ccccc1-2', 'TGI', '=', 72.7),
  ('CCOC(=O)Oc1ccc2c(c1)c(=O)c1c(NCCN(CC)CC)ccc3nnn2c31', 'TGI', '=', 19.9),
  ('COc1cccc(/C=C2\COc3ccc(-c4ccccc4)cc3C2=O)c1', 'TGI', '>', 100),
  ('CCN(CC)c1ccc(/C=C/C=C2C(=O)NC(=S)NC2=O)cc1', 'TGI', '>', 100),
  ('COc1ccc(-n2sc3ncccc3c2=O)cc1', 'TGI', '=', 28.4),
  ('C(=C\N1CCCCC1)/c1nnnn1-c1ccccc1', 'TGI', '=', 63.1),
  ('O=c1cnn(CCOCP(=O)(O)O)c(=O)[nH]1', 'TGI', '>', 100),
  ('CO[C@H]1C[C@@H]2CC[C@@H](C)[C@@](O)(O2)C(=O)C(=O)N2CCCC[C@H]2C(=O)O[C@H]([C@H](C)C[C@@H]2CC[C@@H](OCCO)[C@H](OC)C2)CC(=O)[C@H](C)C=C(C)[C@@H](O)[C@@H](OC)C(=O)[C@H](C)C[C@H](C)/C=C/C=C/C=C1C', 'TGI', '=', 21.5),
  ('C[Si](C)(c1ccccc1)[C@H]1CCCC=C1CCNC1c2ccccc2CCc2ccccc21', 'TGI', '>', 100),
  ('C=CCOCn1cc(C)c(=O)[nH]c1=O', 'TGI', '>', 100),
  ('COC(=O)CSSCc1ccc([N+](=O)[O-])cc1', 'TGI', '=', 69.2),
  ('CN1CCN(CCCOc2cccc3nc(Nc4ccc(Cl)c(C(F)(F)F)c4)ccc23)CC1', 'TGI', '=', 3.98),
  ('CC[C@H](C)[C@H](NC(=O)CN(C)C)C(=O)N(C)[C@H](C[C@@H](OC(C)=O)c1nc(C(=O)NC23CC(C(=O)OC)(C2)C3)cs1)C(C)C', 'TGI', '>', 25),
  ('CC(C)(C)OC(=O)NCCCCC(NC(=O)c1ccccc1)C(N)=O (centres undefined)', 'TGI', '>', 100),
  ('CCN1CCN(C(=O)[C@]23CCC(C)(C)C[C@@H]2C2=CC[C@@H]4[C@@]5(C)C/C(=C/c6ccncc6)C(=O)C(C)(C)[C@@H]5CC[C@@]4(C)[C@]2(C)CC3)CC1', 'TGI', '=', 3.01);

====

tested on: OVCAR-4 ovarian; assay: NCI tumour cell line growth inhibition, 48 h
Below is a list of entries, each paired with its recorded TGI value.
ATTRIBUTE MEASURED: TGI

INSERT INTO assay_data (compound, result) VALUES
  ('O=C(NC(=S)NC(=O)c1cc(O)c(O)c(O)c1)c1cc(O)c(O)c(O)c1', '46.1 µM'),
  ('C[N+]1(CCN[N+]2(C)CCCCC2)CCc2ccccc2C1 (stereo unspecified)', '> 100 µM'),
  ('Cc1ccc2c(c1)C(=O)C(C1OC(=O)c3ccccc31)C2 (stereo unspecified)', '> 100 µM'),
  ('CC1=C(C(=O)Nc2ccc(Cl)c(C(=O)OC(C)C)c2)SCCO1', '> 97.6 µM'),
  ('C=C1C(=O)OC2/C=C(/C)C(OC(C)=O)C/C=C(\C)C(OC(=O)C3(C)OC3C)C(O)C12 (stereo unspecified)', '> 100 µM'),
  ('C#CCOc1ccc2ncnc(Nc3ccc(NC(=O)C=C)cc3)c2c1', '> 100 µM'),
  ('O=C(Nc1nc2c(ncn2C2OC(CO)C(O)C2O)c(=O)[nH]1)c1ccccc1 (stereo unspecified)', '> 100 µM'),
  ('CCOC(=O)N(c1ccccc1)N(CC)C(=O)/C(C)=N/Nc1ccc([N+](=O)[O-])cc1', '42.2 µM'),
  ('CCCCCCCCCCCCCC[C@@H](O)[C@H]1CC[C@H]([C@H]2CC[C@H]([C@H](O)CCCCCC[C@@H](O)CC3=C[C@H](C)OC3=O)O2)O1', '> 25 µM'),
  ('O=C(CC(Cl)=C(Cl)Cl)c1cccc(Cl)c1Cl', '> 100 µM'),
  ('CCn1c(SCC(=O)NNC(=S)NC)nc2ccccc2c1=O', '> 100 µM'),
  ('NC(Cc1ccc(S(=O)(=O)O)cc1)C(=O)NC(Cc1ccc(S(=O)(=O)O)cc1)C(=O)O (stereo unspecified)', '> 100 µM'),
  ('C[C@@H]1S[C@H](c2c(Cl)cccc2Cl)N2Cc3ccccc3N=C12', '> 100 µM'),
  ('CC(=O)[O][Hg][c]1c(C)c(C)cc(C)c1C', '1.37 µM'),
  ('CN(Cc1cnc2nc(N)nc(N)c2n1)c1ccc(C(=O)NC(CCC(=O)O)C(=O)O)cc1Br (stereo unspecified)', '> 100 µM'),
  ('CC(SC(=O)Nc1ccc(N=Nc2ccccc2)cc1)C(=O)O (stereo unspecified)', '> 100 µM');
